- SUBJECT OF TEST: furin, P09958
- Sequence (P09958 whole entry): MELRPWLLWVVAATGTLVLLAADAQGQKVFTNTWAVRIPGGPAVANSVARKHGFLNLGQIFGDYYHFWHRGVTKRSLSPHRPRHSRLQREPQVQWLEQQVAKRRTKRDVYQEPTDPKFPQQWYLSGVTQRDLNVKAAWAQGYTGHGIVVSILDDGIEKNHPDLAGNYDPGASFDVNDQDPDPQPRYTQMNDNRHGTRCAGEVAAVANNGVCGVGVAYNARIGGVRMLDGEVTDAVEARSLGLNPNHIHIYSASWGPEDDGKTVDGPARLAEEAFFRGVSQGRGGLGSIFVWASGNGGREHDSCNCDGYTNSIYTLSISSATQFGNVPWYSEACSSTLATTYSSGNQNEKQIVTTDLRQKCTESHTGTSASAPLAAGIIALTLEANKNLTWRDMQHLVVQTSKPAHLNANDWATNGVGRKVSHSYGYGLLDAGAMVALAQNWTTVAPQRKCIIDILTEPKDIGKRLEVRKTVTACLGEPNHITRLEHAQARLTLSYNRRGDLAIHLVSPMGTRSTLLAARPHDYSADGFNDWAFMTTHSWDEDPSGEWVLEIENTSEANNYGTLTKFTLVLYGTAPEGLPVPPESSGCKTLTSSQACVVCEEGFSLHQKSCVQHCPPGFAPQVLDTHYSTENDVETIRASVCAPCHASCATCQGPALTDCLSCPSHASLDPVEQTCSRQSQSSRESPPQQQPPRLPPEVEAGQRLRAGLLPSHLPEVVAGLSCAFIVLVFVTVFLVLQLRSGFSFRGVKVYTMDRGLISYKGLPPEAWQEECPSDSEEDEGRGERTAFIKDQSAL
- TEST NAME: furin cleavage Z-score vs untreated control; higher = more cleavage, active = 3.5 or more, inactive = 1 or less, 8 variable residues between constant flanks;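 further: purified furin at 1:10 enzyme:substrate in 50 mM HEPES pH 7.5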
- MEASUREMENT CONDITIONS: 30 min
The other results are listed elsewhere or left out. No count for the full screen is at hand.
Quick list: furin cleavage Z-score per entry.
Could you keep your reply to the number by itself?

* CASTECSAHLAGNASASA [HC2512] | 2.81
* CASTAAQTFLAGNASASA [HC692] | 0.0229
* CADYEVVTSTAGNASASA [HC2289] | 0.0996

Exam item: Entry CAGFADLMGYAGNASASA [HC225] needs its furin cleavage Z-score filled in; supply it.
Marked response: -1.14

Exam item: Entry CALRFRRKRKAGNASASA [FS-825] needs its furin cleavage Z-score filled in; supply it.
Marked response: 8.47

Exam item: Entry CAAVCCSMSYAGNASASA [HC1983] needs its furin cleavage Z-score filled in; supply it.
Marked response: 0.279

Exam item: Entry CAEGVTSTWVAGNASASA [HC2176] needs its furin cleavage Z-score filled in; supply it.
Marked response: 0.24

Exam item: Entry CAVVCCSMSCAGNASASA [HC2100] needs its furin cleavage Z-score filled in; supply it.
Marked response: -0.294

Exam item: Entry CALTARFRRGAGNASASA [FS-1374] needs its furin cleavage Z-score filled in; supply it.
Marked response: 9.56

Exam item: Entry CATTPTSGSWAGNASASA [HC56] needs its furin cleavage Z-score filled in; supply it.
Marked response: -0.847

Exam item: Entry CASVPAEILRAGNASASA [HC1295] needs its furin cleavage Z-score filled in; supply it.
Marked response: 1.9
